Where these numbers come from: the supplement of paper PMC11246515

assay: total protein half-life in vivo (active degradation + dilution); higher = more stable protein; settings: wild type E. coli NCM3722; growth: N-lim chemostat; doubling time 6 h
Measurement Label: total protein half-life in vivo (h)
A number alone suffices; assume h.

Annotate the sequence `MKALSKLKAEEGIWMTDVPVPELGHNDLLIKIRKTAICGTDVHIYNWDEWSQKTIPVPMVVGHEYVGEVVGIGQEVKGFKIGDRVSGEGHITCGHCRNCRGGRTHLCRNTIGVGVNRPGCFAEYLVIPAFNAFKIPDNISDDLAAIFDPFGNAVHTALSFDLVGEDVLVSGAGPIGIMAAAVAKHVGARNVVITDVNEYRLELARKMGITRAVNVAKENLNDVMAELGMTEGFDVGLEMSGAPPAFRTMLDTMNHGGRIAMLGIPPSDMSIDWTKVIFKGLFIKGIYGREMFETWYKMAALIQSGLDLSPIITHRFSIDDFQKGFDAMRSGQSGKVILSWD` with its measured total protein half-life in vivo.
4.85

====

assay: total protein half-life in vivo (active degradation + dilution); higher = more stable protein; conditions: E. coli NCM3722 delta-hslV; growth: N-lim chemostat; doubling time 6 h
Measurement Label: total protein half-life in vivo (h)
A number alone suffices; assume h.

Annotate the sequence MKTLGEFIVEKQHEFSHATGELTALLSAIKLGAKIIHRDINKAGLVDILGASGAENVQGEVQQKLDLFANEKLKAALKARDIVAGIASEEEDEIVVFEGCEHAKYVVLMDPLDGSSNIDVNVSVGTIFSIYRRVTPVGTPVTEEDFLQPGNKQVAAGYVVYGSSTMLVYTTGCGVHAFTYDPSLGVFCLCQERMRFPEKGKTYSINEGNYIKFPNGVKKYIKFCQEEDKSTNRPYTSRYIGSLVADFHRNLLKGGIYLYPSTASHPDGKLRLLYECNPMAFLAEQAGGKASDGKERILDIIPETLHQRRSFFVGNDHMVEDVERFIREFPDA [P0A993] with its measured total protein half-life in vivo.
3.76

Annotate the sequence `MIFLMTKDSFLLQGFWQLKDNHEMIKINSLSEIKKVGNKPFKVIIDTYHNHILDEEAIKFLEKLDAERIIVLAPYHISKLKAKAPIYFVSRKESIKNLLEITYGKHLPHKNSQLCFSHNQFKIMQLILKNKNESNITSTLNISQQTLKIQKFNIMYKLKLRRMSDIVTLGITSYF` with its measured total protein half-life in vivo.
1.91

Annotate the sequence `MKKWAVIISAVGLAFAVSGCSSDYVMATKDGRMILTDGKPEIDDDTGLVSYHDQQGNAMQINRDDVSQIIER` with its measured total protein half-life in vivo.
4.24

Annotate the sequence MIYPDEAMLYAPVEWHDCSEGFEDIRYEKSTDGIAKITINRPQVRNAFRPLTVKEMIQALADARYDDNIGVIILTGAGDKAFCSGGDQKVRGDYGGYKDDSGVHHLNVLDFQRQIRTCPKPVVAMVAGYSIGGGHVLHMMCDLTIAADNAIFGQTGPKVGSFDGGWGASYMARIVGQKKAREIWFLCRQYDAKQALDMGLVNTVVPLADLEKETVRWCREMLQNSPMALRCLKAALNADCDGQAGLQELAGNATMLFYMTEEGQEGRNAFNQKRQPDFSKFKRNP [P0ABU0] with its measured total protein half-life in vivo.
4.15

Annotate the sequence `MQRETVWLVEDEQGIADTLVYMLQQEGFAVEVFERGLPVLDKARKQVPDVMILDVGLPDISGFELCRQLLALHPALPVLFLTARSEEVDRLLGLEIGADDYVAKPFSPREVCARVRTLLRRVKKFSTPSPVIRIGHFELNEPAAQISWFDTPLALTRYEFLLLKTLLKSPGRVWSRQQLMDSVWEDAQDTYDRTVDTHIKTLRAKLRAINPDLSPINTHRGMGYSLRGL` with its measured total protein half-life in vivo.
3.55

Continuing:
Annotate the sequence `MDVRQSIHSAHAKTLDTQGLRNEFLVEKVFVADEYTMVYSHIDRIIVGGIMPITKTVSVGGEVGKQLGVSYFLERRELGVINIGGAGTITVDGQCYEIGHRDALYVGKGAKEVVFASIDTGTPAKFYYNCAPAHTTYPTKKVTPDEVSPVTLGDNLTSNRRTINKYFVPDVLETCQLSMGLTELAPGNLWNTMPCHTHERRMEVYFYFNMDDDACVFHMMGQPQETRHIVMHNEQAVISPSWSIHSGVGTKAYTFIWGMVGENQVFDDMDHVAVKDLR` with its measured total protein half-life in vivo.
3.6

Annotate the sequence `MRLFNWRRQAVLNAMPLVKPDQVRTPWHEFWRRFRRQHMAMTAALFVILLIVVAIFARWIAPYDAENYFDYDNLNNGPSLQHWFGVDSLGRDIFSRVLVGAQISLAAGVFAVFIGAAIGTLLGLLAGYYEGWWDRLIMRICDVLFAFPGILLAIAVVAVLGSGIANVIIAVAIFSIPAFARLVRGNTLVLKQQTFIESARSIGASDMTVLLRHILPGTVSSIVVFFTMRIGTSIISAASLSFLGLGAQPPTPEWGAMLNEARADMVIAPHVAVFPALAIFLTVLAFNLLGDGLRDALDPKIKG` with its measured total protein half-life in vivo.
6.48

Annotate the sequence MTTQTVSGRRYFTKAWLMEQKSLIALLVLIAIVSTLSPNFFTINNLFNILQQTSVNAIMAVGMTLVILTSGIDLSVGSLLALTGAVAASIVGIEVNALVAVAAALALGAAIGAVTGVIVAKGRVQAFIATLVMMLLLRGVTMVYTNGSPVNTGFTENADLFGWFGIGRPLGVPTPVWIMGIVFLAAWYMLHHTRLGRYIYALGGNEAATRLSGINVNKIKIIVYSLCGLLASLAGIIEVARLSSAQPTAGTGYELDAIAAVVLGGTSLAGGKGRIVGTLIGALILGFLNNGLNLLGVSSYYQMIVKAVVILLAVLVDNKKQ [P0AGI1] with its measured total protein half-life in vivo.
5.86

Annotate the sequence `MSGLPLISRRRLLTAMALSPLLWQMNTAHAAAIDPNRIVALEWLPVELLLALGIVPYGVADTINYRLWVSEPPLPDSVIDVGLRTEPNLELLTEMKPSFMVWSAGYGPSPEMLARIAPGRGFNFSDGKQPLAMARKSLTEMADLLNLQSAAETHLAQYEDFIRSMKPRFVKRGARPLLLTTLIDPRHMLVFGPNSLFQEILDEYGIPNAWQGETNFWGSTAVSIDRLAAYKDVDVLCFDHDNSKDMDALMATPLWQAMPFVRAGRFQRVPAVWFYGATLSAMHFVRVLDNAIGGKA` with its measured total protein half-life in vivo.
6.62

Annotate the sequence `MSTFKPLKTLTSRRQVLKAGLAALTLSGMSQAIAKDELLKTSNGHSKPKAKKSGGKRVVVLDPGHGGIDTGAIGRNGSKEKHVVLAIAKNVRSILRNHGIDARLTRSGDTFIPLYDRVEIAHKHGADLFMSIHADGFTNPKAAGASVFALSNRGASSAMAKYLSERENRADEVAGKKATDKDHLLQQVLFDLVQTDTIKNSLTLGSHILKKIKPVHKLHSRNTEQAAFVVLKSPSVPSVLVETSFITNPEEERLLGTAAFRQKIATAIAEGVISYFHWFDNQKAHSKKR` with its measured total protein half-life in vivo.
4.89

Annotate the sequence `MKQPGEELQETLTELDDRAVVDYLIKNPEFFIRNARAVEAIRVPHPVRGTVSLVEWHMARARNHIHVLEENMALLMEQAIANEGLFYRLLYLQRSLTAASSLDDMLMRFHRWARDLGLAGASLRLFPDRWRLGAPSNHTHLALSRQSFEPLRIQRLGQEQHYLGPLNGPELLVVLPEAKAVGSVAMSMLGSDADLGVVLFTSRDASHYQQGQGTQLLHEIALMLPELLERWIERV` with its measured total protein half-life in vivo.
1.73
